B1: TPR t1 (parent)
chain: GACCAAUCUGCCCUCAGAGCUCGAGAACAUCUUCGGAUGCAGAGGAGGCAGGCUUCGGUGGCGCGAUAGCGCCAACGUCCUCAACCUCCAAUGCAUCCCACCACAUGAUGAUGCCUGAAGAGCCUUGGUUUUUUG

# Variants of: B1
# Run description: polymerase ribozyme fitness, log enrichment relative to wild type (log ratio); higher = more active; in vitro selection for triplet polymerase activity
Class field: derived from polymerase ribozyme fitness (log ratio); ranges LOW = under -4, MID = from -4 up to -2, HIGH = -2 and over

{"Mutation string": "A6C U9A C15G G45A C104A C124G", "Class name": "MID"}
{"Mutation string": "A95G C98G G120U", "Class name": "LOW"}
{"Mutation string": "C12U A46U C49U G63C A90C", "Class name": "LOW"}
{"Mutation string": "C3A C13A C20A A66G G117A", "Class name": "LOW"}
{"Mutation string": "G47A G69U C98U C99U", "Class name": "MID"}
{"Mutation string": "U9G G45A", "Class name": "HIGH"}
{"Mutation string": "C79A C99A", "Class name": "LOW"}
{"Mutation string": "C49U C70G", "Class name": "MID"}
{"Mutation string": "G69U C98U", "Class name": "HIGH"}
{"Mutation string": "C12U C13A C72G U78C", "Class name": "HIGH"}
{"Mutation string": "A2C A105C", "Class name": "LOW"}
{"Mutation string": "C56A C89U", "Class name": "HIGH"}
{"Mutation string": "G44U C70A C73U", "Class name": "MID"}
{"Mutation string": "G19A G61C", "Class name": "LOW"}
{"Mutation string": "C89G C123G", "Class name": "HIGH"}
{"Mutation string": "C20A U38A G48A C104A A121U", "Class name": "LOW"}
{"Mutation string": "A6C G47A C123U U125A", "Class name": "HIGH"}
{"Mutation string": "G35U C56U", "Class name": "LOW"}
{"Mutation string": "C49U A50G G71U A105U", "Class name": "LOW"}
{"Mutation string": "U9G A18C G117C", "Class name": "HIGH"}
{"Mutation string": "A111G U132A", "Class name": "HIGH"}
{"Mutation string": "U32A G61U", "Class name": "MID"}
{"Mutation string": "A6U C11G", "Class name": "HIGH"}
{"Mutation string": "G17A C20A G61C A119U C124A", "Class name": "LOW"}
{"Mutation string": "C13A A18G C49A C94U G117U", "Class name": "LOW"}
{"Mutation string": "A29C A90G G113U C114U", "Class name": "MID"}
